test: viability gain of MRP-1-high H69AR cells under doxorubicin, pilot screen, MRP-1 activator project, CellTiter-Glo, duplicate (AID 807); settings: H69AR viability with doxorubicin, CellTiter-Glo luminescence; at 10 µM; hits give high values;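 note: compound pretreatment 18-22 h then 72 h combined with doxorubicin; 0% = doxorubicin alone and 100% = vehicle without doxorubicin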
Quick reference for viability increase among some compounds
// return numeric value only (unit: %, not printed)

Some solved entries appear below for comparison.
{"compound": "COCCCNC(=O)c1cn(C)c(=O)c2cc(OC)c(OC)cc12", "viability increase (%)": -2.69}
{"compound": "FC(F)(F)c1nnc2ccc(-n3ccnc3)nn12", "viability increase (%)": -1.45}

Lab note: next compound to report on.
Looking up "CC(C)Cn1c(CN2C(=O)c3ccccc3C2=O)nc2ccccc2c1=O" , I found its viability increase recorded as -0.19

---

assay: 384-well plate pilot, post-Golgi transport modulator project, inhibition of yeast transport mutant growth (AID 636); settings: absorbance 615 nm, about 18 h, hits give high values
experimental_endpoint: inhibition (%)
State the answer as a number, implicitly in %.

Solved cases (5 shown):
{"compound": "CC(C)(C)OC(=O)NCCc1nnc(SCC(=O)c2ccc(Cl)cc2)o1", "inhibition / %": -0.78}
{"compound": "CCC1C(=O)N=C(SCC(=O)Nc2cccc3ccccc23)NC1=O (configuration not stated)", "inhibition / %": -3.24}
{"compound": "Cc1ccccc1-n1c(=O)c2ccccc2n2nnnc12", "inhibition / %": 0}
{"compound": "COc1cc2c(cc1NC(=O)COC(=O)Cn1cnc3ccccc31)oc1ccccc12", "inhibition / %": -1.87}
{"compound": "Cc1ccc(-c2noc(CCC(=O)N3CCN(c4cccc(C(F)(F)F)c4)CC3)n2)cc1", "inhibition / %": -3.95}

Sample "Nc1cc(C(=O)O)ccc1Nc1ccc(F)c(F)c1" ; inhibition observed: 2.4

Lab note: "O=C(NC1CCCC1)c1ccc2nc[nH]c2c1" gave inhibition of -6.23

Reported inhibition ( CCOc1ccccc1C1CC(=O)NC(SCC)=C1C#N (configuration not stated) ) = -6.08

get_value(item= "O=c1c2ccccc2nnn1CSc1nnc2sc3ccccc3n12" , readout=inhibition) returns -9.04

Noted for O=C(CN(C(=O)CCC(=O)Nc1nccs1)c1ccccc1F)NCC1CCCO1 (configuration not stated) : its inhibition reads -3.33

Notebook: "Cc1cc(C)c(OCC(=O)Nc2ccc3c(c2)OCO3)cc1C" , inhibition read as -4

Just so you know, measured inhibition for "O=C(O)CCNc1ccc2c(c1)OCCO2" came out at -5.14

Lab note: "CC1(C)CC(=O)C(C(=O)CCCCC(=O)C2C(=O)CC(C)(C)CC2=O)C(=O)C1" gave inhibition of 0.53

Reported inhibition ( "O=C(Nc1ccc(CN2CCOCC2)cc1)c1cc2ccccc2oc1=O" ) = -2.37

"c1cncc(-c2nnc(SCCSc3nnc(-c4cccnc4)o3)o2)c1" yielded inhibition of -5.68

The recorded inhibition for entry CSCCC(NC(=O)c1ccco1)C(=O)O (configuration not stated) equals -0.93

Item: COC(=O)N1CC(c2ccccc2)CC1=O (configuration not stated) | inhibition: -9.04

compound "CCCn1c2ccccc2c2nnc(SCC(=O)Nc3ncccn3)nc21" , inhibition observed: -0.53

Briefly, inhibition measured for "O=C(Nc1ccccc1)N1C(=O)C2(OCCO2)c2ccccc21" : -0.79

---

assay: growth suppression of beta-catenin knockout HCT116, pilot screen, human colon tumor cells (AID 823); settings: CellTiter-Glo, 60 h, at 10 µM, hits give low values;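 note: 0% = wells killed by 20 µM Hyamine and 100% = untreated DMSO cell wells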
Inconclusive results are not listed.
experimental_endpoint: viability (%)
Give a bare numeral; the unit % is implied.

Recorded viability, per entry:
{"compound": "CN(C)S(=O)(=O)c1ccc(C(=O)Nc2ccccn2)cc1", "experimental_endpoint": "viability", "result_number": 96.6}
{"compound": "CC(C)Sc1nc(NCc2ccco2)c2c3c(sc2n1)COC(C)(C)C3", "experimental_endpoint": "viability", "result_number": 56}
{"compound": "Cc1ccc(-c2nc(S(=O)(=O)c3ccc(F)cc3)c(SCC(=O)NCC3CCCO3)o2)cc1 (centres undefined)", "experimental_endpoint": "viability", "result_number": 93.6}

// sample "N#Cc1c2n(cnc1=O)CCCCC2" , its viability was 100

Sample "COc1ccc(CNC(=O)c2cc3c(C)nc4ccccc4c3o2)c(OC)c1" ; viability observed: 74

Value of viability reported for the compound Cc1cc(C)c(S(=O)(=O)NCC2CCC(C(=O)NCCCN3CCOCC3)CC2)c(C)c1 (centres undefined) is 81.3

Reported viability of "Nc1c(C(=O)Nc2ccc3c(c2)OCCO3)nnn1CCc1ccccc1" : 39.1

The compound listed as "CCCCCn1c(=O)[nH]c2c(c1=O)CCC2" shows viability equal to 101
